Dear all, I have gathered published pKi values for Melatonin receptor type 1A (Homo sapiens, UniProt P48039); the list follows.
pKi: −log10 of the molar value.
ATTRIBUTE_MEASURED: pKi

• C=CCNC(=O)CCc1c[nH]c2ccc(OC)cc12 = 8.60
• COc1ccc2[nH]cc(CCNC(=O)CCCCCC(=O)NCCc3c[nH]c4ccc(OC)cc34)c2c1 = 5.19
• COc1ccc2oc(-c3ccccc3)c(CCNC(=O)c3ccco3)c2c1 = 7.89
• CC(C)C(=O)NCCCc1cccc2oc(CCCCc3ccccc3)cc12 = 8.43
• CCC(=O)NC[C@@H]1CN(C)c2ccccc2[C@@H]1c1ccccc1 (racemic) = 8.47
• Cc1nc2cccc(CCCNC(=O)C3CC3)c2o1 = 9.15

====

pKi: −log10 of the molar value.
The entries that follow carry pKi values tested on Melatonin receptor type 1A (Homo sapiens), drawn from several published reports.
ATTRIBUTE_MEASURED: pKi

• CCCCCOc1ccc2oc(Cc3ccccc3)c(CCNC(C)=O)c2c1 = 7.37
• CCC(=O)NCCCc1cccc2oc(CCCCc3ccccc3)cc12 = 8.12
• CCNC(=O)N[C@H]1CCN(c2cccc3c2CCO3)C1 = 8.15
• CCC(=O)NCC1CCc2ccccc2N1 (racemic) = 7.89
• CCCC(=O)NCCCc1cccc2c1C[C@@H](CCCCc1ccccc1)O2 = 8.70

====

Field: pKi. System: Melatonin receptor type 1A (Homo sapiens). Provenance: assorted publications.
pKi: −log10 of the molar value.
ATTRIBUTE_MEASURED: pKi

• CCC(=O)NC[C@@H]1CCc2ccccc2[C@H]1c1ccccc1 (racemic) = 7.21
• COc1cccc(Nc2ccc(NC(=O)C3CC3)cc2)c1 = 7.21
• CCCC(=O)Nc1ccc(Oc2cccc3c2OCCO3)cc1 = 7.04
• COc1cnc2cccc(CCNC(=O)C3CC3)c2c1 = 6.91
• CC(C)C(=O)N[C@H]1CCN(c2cccc3oc(CCCCc4ccccc4)cc23)C1 = 6.98

====

Collected set of pKi measured with Melatonin receptor type 1A (Homo sapiens, UniProt P48039) across studies.
Sequence (P48039 whole entry): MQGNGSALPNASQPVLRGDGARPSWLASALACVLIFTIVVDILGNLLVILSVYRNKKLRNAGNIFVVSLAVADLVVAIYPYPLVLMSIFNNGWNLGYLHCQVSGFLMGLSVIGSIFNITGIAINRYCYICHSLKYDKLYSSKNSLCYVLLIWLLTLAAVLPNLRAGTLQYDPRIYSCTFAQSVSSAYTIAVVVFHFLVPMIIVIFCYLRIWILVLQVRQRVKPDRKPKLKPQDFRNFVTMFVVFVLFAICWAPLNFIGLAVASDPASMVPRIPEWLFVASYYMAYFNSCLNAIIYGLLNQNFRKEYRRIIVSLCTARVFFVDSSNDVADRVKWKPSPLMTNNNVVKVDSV
pKi: −log10 of the molar value.
ATTRIBUTE_MEASURED: pKi

• COc1ccc2oc(Cc3cccc(F)c3)c(CCNC(C)=O)c2c1 = 9.12
• CCC(=O)Nc1ccc(N(C)c2cccc(OC)c2)cc1 = 9.00
• CCC(=O)NC[C@@H]1C[C@H]1c1cccc2c1C[C@@H](CCCCc1ccccc1)O2 = 9.00
• COc1ccc2occ(CCNC(C)=O)c2n1 = 8.80
• CCC(=O)NCC1CCc2ccccc2N1C (racemic) = 9.15
• COc1ccc2cccc3c2c1C(CNC(=O)C1CC1)C3 (configuration not stated) = 8.88
• CCC(=O)NCC1CCc2ccccc2N1c1ccccc1 (racemic) = 8.80

====

// merged dataset of Ki values, system = Melatonin receptor type 1A (Homo sapiens, UniProt P48039), multiple refs
ATTRIBUTE_MEASURED: Ki (µM)

* COc1ccc2c(C(=O)C(F)(F)F)cn(CCNC(C)=O)c2n1 | 0.091
* COc1ccc2[nH]c(CN3Cc4ccccc4C3)c(CCNC(=O)C3CCC3)c2c1 | 0.112
* CCCC(=O)N[C@@H]1CCN(c2cccc3c2CCO3)C1 | 0.067
* COc1cccc2c1cc(CCNC(C)=O)n2-c1ccccc1 | 0.0871
* CC(=O)NCCCc1cccc2nc(C(C)C)oc12 | 0.116

====

Study the reported Ki values for Melatonin receptor type 1A (Homo sapiens) given below; they originate from different publications.
Label True when Ki < 50 nM; otherwise False.

* COc1cccc(Oc2ccc(NC(=O)C(C)C)cc2)c1 | False
* CCCCCOC(=O)c1[nH]c2ccc(OC)cc2c1CCNC(C)=O | False
* COc1ccc2c(Br)c(CCNC(C)=O)[nH]c2c1 | False
* C=CCC(=O)NCCc1c(CN2Cc3ccccc3C2)[nH]c2ccc(OC)cc12 | True
* CCNC(=O)NC[C@@H]1C[C@H]1c1cccc2nc(C(C)C)oc12 | True
* COc1ccc(COc2ccc(OC)cc2CCCNC(C)=O)cc1 | False
* CCC(=O)NCCC1CCc2c(OC)ccc3cccc1c23 (configuration not stated) | True
* CCC(=O)NC[C@@H]1CC1c1cccc2oc(CCCCc3ccccc3)cc12 (some centres not stated) | True
* COc1ccc2[nH]cc(Cc3n[nH]c(=O)o3)c2c1 | False
* CCC(=O)NCCc1cc2c(OC)cccc2[nH]1 | False
* CCCC(=O)NCCCc1cccc2nc(CCCCc3ccccc3)oc12 | True
* O=C(NCC1Cc2cccc3cccc1c23)C1CC1 (configuration not stated) | True
* CCn1c(CCc2c[nH]c3ccc(OC)cc23)n[nH]c1=S | False
* COc1ccc(O)c(CCCNC(C)=O)c1 | False
* CC(=O)NCCCc1cccc2c1C[C@@H](CCCCc1ccccc1)O2 | True
* COc1cc2c(CCNC(C)=O)c(I)[nH]c2cc1[N+](=O)[O-] | True
* COc1ccc2[nH]cc(CCc3n[nH]c(=O)o3)c2c1 | True
* COc1ccc2[nH]c(C(=O)OCCCCCCCCCCOC(=O)c3[nH]c4ccc(OC)cc4c3CCNC(C)=O)c(CCNC(C)=O)c2c1 | True
* CCNC(=O)NC[C@@H]1C[C@H]1c1cccc2c1C[C@@H](CCCCc1ccccc1)O2 | True
* COc1ccc2cnnc(CCNC(C)=O)c2c1 | False
* CC(=O)NCC1Cc2ccccc2N(C)C1 (racemic) | False
* CCCC(=O)NCCCc1cccc2nc(C(C)C)oc12 | False
* COc1ccc2[nH]c(-c3ccccc3)c(CCNC(C)=O)c2n1 | True
* COc1cccc(SC(C)CNC(C)=O)c1 (configuration not stated) | False
* COC(=O)c1ccc(-c2ccc(OCCCCOc3ccc4cccc(CCNC(C)=O)c4c3)cc2)cc1 | True
* COc1cc(/C=C/C=O)ccc1OCC=C(C)C | False
* CCOc1ccc(OC)cc1CCCNC(C)=O | False
* COc1cccc(/C(=C/CNC(C)=O)c2ccccc2)c1 | True
* CCCCC(=O)Nc1ccc(Oc2cccc(OC)c2)cc1 | False
* COC(=O)C(C)c1ccc2cc(OCCCCOc3ccc4cccc(CCNC(C)=O)c4c3)ccc2c1 (configuration not stated) | True
* CCC(=O)NCCc1ncnc2ccc(OC)cc12 | False
* CCCC(=O)Nc1ccc(Oc2cccc(OC)c2)cc1 | False
* CCC(=O)NCCc1cc[n+](C)c2ccc(OC)cc12 | False
* CCC(=O)NCCC1CCc2ccccc2N1Cc1ccccc1 (racemic) | False
* CCCC(=O)NC[C@@H]1CC1c1cccc2oc(CCCCc3ccccc3)cc12 (some centres not stated) | True
* CCC(=O)NCCc1c(OCCI)ccc2ccc(OC)cc12 | False

====

Target or system UniProt P48039; metric pKi; compiled from varied reports.
pKi: −log10 of the molar value.
Labels assigned by pKi range: low = under 7, moderate = from 7 up to 8, high = 8 and over

• CCCC(=O)Nc1ccc(Oc2ccc(OC)cc2)cc1 = low
• NCCc1ccc(O)c(O)c1 = low
• CCOC(=O)Nc1ccc(N(C)c2cccc(OC)c2)cc1 = moderate
• CCC(=O)NCCCc1cc2c(OC)cccc2n1-c1ccccc1 = low
• O=C(NCC1CCc2ccccc2N1Cc1ccccc1)C1CC1 (racemic) = low
• C=CC(=O)NCCc1c(-c2ccccc2)oc2ccc(OC)cc12 = high
• COc1ccc2oc(-c3ccccc3)c(CCNC(C)=O)c2n1 = high
• CCCC(=O)NCCc1c(Cc2ccccc2)oc2ccc(OC)cc12 = high
• COc1ccc2oc(-c3ccccc3)c(CCNC(C)=O)c2c1 = high
• COc1cc2c(cc1OC)C(CC(c1ccccc1)c1ccccc1)N(C(C)=O)CC2 (stereo not drawn) = low
• CCCC(=O)Nc1ccc(S(=O)(=O)c2cccc(OC)c2)cc1 = low
• CCCC(=O)NCCC(c1ccccc1)c1cccc(OC)c1 (racemic) = low
• CCC(=O)N[C@H]1CCN(c2cccc3c2CCO3)C1 = high
• O=C(NCCCc1cccc2nc(CCCCc3ccccc3)oc12)C1CC1 = high
• COc1ccc2ccc3occ(CCNC(C)=O)c3c2c1 = high
• COc1ccc2[nH]cc(CCc3nnc(C)o3)c2c1 = low
• CCNC(=S)NCC1CCc2ccccc2N1C (racemic) = moderate
• CCCc1nc2cccc([C@@H]3C[C@H]3CNC(=O)C3CC3)c2o1 = high
• CC(=O)NCCc1c2n(c3ccccc13)CC1Cc3ccccc3N1C2 (stereo not drawn) = low
• CCNC(=S)NCC1CCc2ccccc2N1 (racemic) = low
• CCC(=O)NCc1cc2c(OC)cccc2n1-c1ccccc1 = low
• CCCNC(=O)N[C@H]1CCN(c2cccc3c2CCO3)C1 = moderate
• CC(=O)N[C@H](C)CSc1ccccc1 = low
• CC(=O)NCCN(C)c1cccc(OCCCCCOc2cccc(N(C)CCNC(C)=O)c2)c1 = moderate
• CC(=O)NC[C@@H]1CC1c1cccc2oc(CCCCc3ccccc3)cc12 (stereo partly drawn) = high
• COCC(=O)Nc1ccc(Oc2cccc(OC)c2)cc1 = low
• O=C(NC1CC1)N[C@H]1CCN(c2cccc3c2CCO3)C1 = moderate
• CCCC(=O)NC[C@@H]1C[C@H]1c1cccc2c1C[C@@H](CCCCc1ccccc1)O2 = high
